# System: MCF7
# assayProtocol: Cytotoxicity against human MCF7 cells overexpressing HER2 assessed as decrease in cell viability after 72 hrs by MTT assay
# Format: functional, cell-based
# runConditions: MCF7, 72 h
# note: boundary value 5 µM maps to -1; IC50 below it maps to 1

Example entries and their recorded answers appear below.
CC(C)=CCC/C(C)=C/C[C@@H]1C(C)(C)[C@@]2(CC=C(C)C)C(=O)c3c(oc4cc(O)c(O)cc4c3=O)[C@](CC=C(C)C)(C2=O)C1(C)C = 1
CC1(C)C=Cc2cc3c(=O)c4c(O)cc(O)cc4oc3c(O)c2O1 = -1
CC(C)=CCC/C(C)=C/C[C@@H]1C[C@]2(CC=C(C)C)C(=O)[C@@](CC=C(C)C)(C(=O)C(C(=O)c3cccc(O)c3)=C2O)[C@@]1(C)CCC=C(C)C = -1

As a next step, examine the compound that follows.
Request: Given "COc1cc(O)c2c(=O)c3ccc(O)c(O)c3oc2c1CCC(C)(C)O" , is recorded IC50 strictly lower than 5 µM?
Response: 1

* * *

# assayProtocol: Cytotoxicity against human HeLaC3 sensor cells assessed as decrease in YFP/CFP emission ratio within 72 hrs by FRET assay
# Type: functional, HeLa C3
// Ratio lookup, one value per entry
Simply state the number, no unit and no words.

Some solved cases for reference:
CC(C)=CCC/C(C)=C/C[C@@H]1C[C@]2(CC=C(C)C)C(=O)[C@@](CC=C(C)C)(C(=O)C(C(=O)c3cccc(O)c3)=C2O)[C@@]1(C)CCC=C(C)C [GARCICOWIN B] = 3
CC1(C)C=Cc2cc3c(=O)c4c(O)cc(O)cc4oc3c(O)c2O1 = 3
CC(C)=CCC/C(C)=C/C[C@@H]1C(C)(C)[C@@]2(CC=C(C)C)C(=O)c3c(oc4cc(O)c(O)cc4c3=O)[C@](CC=C(C)C)(C2=O)C1(C)C [OBLONGIFOLIN G] = 3
COc1cc(O)c2c(=O)c3ccc(O)c(O)c3oc2c1CCC(C)(C)O [NIGROLINEAXANTHONE T] = 3

Request: Reported Ratio, compound CC(C)=CCC/C(C)=C/C[C@H]1C(C)(C)[C@@]2(CC=C(C)C)C(=O)c3c(oc4cc(O)c(O)cc4c3=O)[C@](CC=C(C)C)(C2=O)C1(C)C [OBLONGIFOLIN F] : ____
Response: 3

* * *

# Test system: HeLa
# assayProtocol: Cytotoxicity against human HeLa cells assessed as decrease in cell viability after 72 hrs by MTT assay
# Type: functional, cell-based
# note: boundary value 5 µM maps to No; IC50 below it maps to Yes

CC(C)=CCC/C(C)=C/C[C@H]1C(C)(C)[C@@]2(CC=C(C)C)C(=O)c3c(oc4cc(O)c(O)cc4c3=O)[C@](CC=C(C)C)(C2=O)C1(C)C [OBLONGIFOLIN F] = Yes
CC(C)=CCC/C(C)=C/C[C@@H]1C[C@]2(CC=C(C)C)C(=O)[C@@](CC=C(C)C)(C(=O)C(C(=O)c3cccc(O)c3)=C2O)[C@@]1(C)CCC=C(C)C [GARCICOWIN B] = No
CC(C)=CCC/C(C)=C/C[C@@H]1C(C)(C)[C@@]2(CC=C(C)C)C(=O)c3c(oc4cc(O)c(O)cc4c3=O)[C@](CC=C(C)C)(C2=O)C1(C)C [OBLONGIFOLIN G] = Yes

As a next step, examine the compound that follows.
Request: Given COc1cc(O)c2c(=O)c3ccc(O)c(O)c3oc2c1CCC(C)(C)O [NIGROLINEAXANTHONE T] , is recorded IC50 strictly lower than 5 µM?
Response: Yes

* * *

// viability at 10 µM lookup, one value per entry
# Test system: HeLa
# assayProtocol: Cytotoxicity against human HeLa cells assessed as decrease in cell viability at 10 uM after 72 hrs by MTT assay
# Type: functional
Quick reminder: number only, in %, skip the unit.

CC(C)=CCC/C(C)=C/C[C@@H]1C(C)(C)[C@@]2(CC=C(C)C)C(=O)c3c(oc4cc(O)c(O)cc4c3=O)[C@](CC=C(C)C)(C2=O)C1(C)C = 50
CC(C)=CCC/C(C)=C/C[C@@H]1C[C@]2(CC=C(C)C)C(=O)[C@@](CC=C(C)C)(C(=O)C(C(=O)c3cccc(O)c3)=C2O)[C@@]1(C)CCC=C(C)C = 50
CC1(C)C=Cc2cc3c(=O)c4c(O)cc(O)cc4oc3c(O)c2O1 = 50

Request: Reported viability at 10 µM, molecule "COc1cc(O)c2c(=O)c3ccc(O)c(O)c3oc2c1CCC(C)(C)O" : ____
Response: 50

Request: Also "CC(C)=CCC/C(C)=C/C[C@H]1C(C)(C)[C@@]2(CC=C(C)C)C(=O)c3c(oc4cc(O)c(O)cc4c3=O)[C@](CC=C(C)C)(C2=O)C1(C)C" , if possible.
Response: 50

This collection of values is drawn from ChEMBL document CHEMBL3286328.
